# MEASURED_ON: Sodium-dependent serotonin transporter (Homo sapiens, UniProt P31645)
# Sequence (P31645 whole entry): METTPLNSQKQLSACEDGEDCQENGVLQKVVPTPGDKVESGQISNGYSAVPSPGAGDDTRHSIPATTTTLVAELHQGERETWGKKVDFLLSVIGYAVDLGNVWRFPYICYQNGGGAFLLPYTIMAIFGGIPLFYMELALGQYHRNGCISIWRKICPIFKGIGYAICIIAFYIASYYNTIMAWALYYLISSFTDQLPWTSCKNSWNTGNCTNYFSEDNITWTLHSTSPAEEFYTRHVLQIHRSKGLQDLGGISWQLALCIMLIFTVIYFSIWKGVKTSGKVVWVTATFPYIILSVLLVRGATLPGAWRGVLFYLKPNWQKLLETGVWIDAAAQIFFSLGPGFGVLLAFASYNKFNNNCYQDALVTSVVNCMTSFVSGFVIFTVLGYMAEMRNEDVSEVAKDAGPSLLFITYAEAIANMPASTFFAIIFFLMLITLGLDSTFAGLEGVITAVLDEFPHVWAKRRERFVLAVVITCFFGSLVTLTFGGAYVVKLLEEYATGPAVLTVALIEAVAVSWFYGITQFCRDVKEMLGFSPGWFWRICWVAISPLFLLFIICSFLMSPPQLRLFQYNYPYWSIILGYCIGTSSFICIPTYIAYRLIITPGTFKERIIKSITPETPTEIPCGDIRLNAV
# ASSAY_SUMMARY: biochemical
# Type: cell-based, LLC-PK1
# Description: Inhibition of [125I]IDAM uptake at SERT (unknown origin) expressed in LLC-PK1 cell membranes
Overview of recorded Ki for various molecules
VALUE_KIND: Ki (nM)

CN(C)Cc1cc(I)ccc1Sc1ccccc1CO | 0.03
CN(C)Cc1cc(I)ccc1Sc1ccccc1N | 1

---

# MEASURED_ON: Sodium-dependent serotonin transporter (Homo sapiens, UniProt P31645)
# ASSAY_SUMMARY: Binding affinity to SERT (unknown origin)
VALUE_KIND: Ki (nM)

CN(C)Cc1ccccc1Sc1ccc([123I])cc1CO | 0.097
CN(C)Cc1ccccc1Sc1ccc([123I])cc1N | 0.013
O=C(OCCF)[C@H]1[C@@H](c2ccc(/C=C\I)cc2)C[C@H]2CC[C@H]1N2 | 0.08
